Data provenance: PubChem BioAssay (NCI)

System: HCT-116 colon
PROTOCOL TEXT: NCI-60 one-dose screen, 48 h
CONDITION CONTEXT: 10 µM unless noted
This is part of a sample that, as a whole, favours compounds with a hit. Of some 83,000 tested, about 20% had one in any assay. The source made the active and inactive calls. The calls were made as follows: active = growth percent below 10; inactive = the rest.
Possible outcomes: Y for active, N for inactive

{"COMPOUND": "O=C(COc1ccc(/C=C2\\Oc3ccccc3C2=O)cc1)c1ccc(Cl)cc1", "MEASUREMENT TARGET": "HCT-116 colon", "CLASS ASSIGNMENT": "N"}
{"COMPOUND": "Cc1c(C)c2c(c(C)c1OCC(=O)O)CC[C@@](C)(CCC[C@@H](C)CCC[C@@H](C)CCCC(C)C)O2", "MEASUREMENT TARGET": "HCT-116 colon", "CLASS ASSIGNMENT": "Y"}
{"COMPOUND": "CN(C)c1ccc(-c2ccc3[nH]c(=O)nc(-c4ccccc4)c3c2)cn1", "MEASUREMENT TARGET": "HCT-116 colon", "CLASS ASSIGNMENT": "N"}
{"COMPOUND": "CC1OC(O[C@H]2/C=C/C=C/C=C/C=C/C=C/C=C/C=C/[C@H](C)[C@@H](O)[C@@H](C)[C@H](C)OC(=O)CC(O)CC(O)CCC(O)C(O)CC(O)C[C@]3(O)C[C@H](O)C(C(=O)O)C(C2)O3)C(O)[C@H](N)C1O (some centres undefined)", "MEASUREMENT TARGET": "HCT-116 colon", "CLASS ASSIGNMENT": "Y"}
{"COMPOUND": "CCCCc1ccc(Nc2ccc(Nc3ccc(CCCC)cc3S(=O)(=O)O)c3c2C(=O)c2ccccc2C3=O)c(S(=O)(=O)O)c1", "MEASUREMENT TARGET": "HCT-116 colon", "CLASS ASSIGNMENT": "N"}
{"COMPOUND": "COc1cccc(C(=O)NCCNc2cc(-c3cn(-c4ccccc4)nc3-c3cccc(OC)c3)ccn2)c1", "MEASUREMENT TARGET": "HCT-116 colon", "CLASS ASSIGNMENT": "N"}
{"COMPOUND": "Nc1cc2c3c(cccc3c1)C(=O)N(CCN1CCCC1)C2=O", "MEASUREMENT TARGET": "HCT-116 colon", "CLASS ASSIGNMENT": "N"}
{"COMPOUND": "COc1cc(OC)cc(C2CC(=O)Nc3c2c(C)nn3-c2nc3ccccc3[nH]2)c1 (centres undefined)", "MEASUREMENT TARGET": "HCT-116 colon", "CLASS ASSIGNMENT": "Y"}
{"COMPOUND": "COc1ccc(-c2cc(-c3cc(OC)c(OC)c(OC)c3)c(C#N)c(N3CCOCC3)n2)cc1O", "MEASUREMENT TARGET": "HCT-116 colon", "CLASS ASSIGNMENT": "N"}
{"COMPOUND": "CC(=O)N1C(=S)NC(=O)C1Cn1c(-c2ccccc2)nc2ccccc21 (centres undefined)", "MEASUREMENT TARGET": "HCT-116 colon", "CLASS ASSIGNMENT": "N"}
{"COMPOUND": "COc1cc(-c2nn(-c3ccccc3)cc2-c2ccnc(NCCNS(=O)(=O)c3ccc(Cl)cc3)n2)ccc1Cl", "MEASUREMENT TARGET": "HCT-116 colon", "CLASS ASSIGNMENT": "N"}
{"COMPOUND": "CNc1ccc(NC)c2c1C(=O)c1ccccc1C2=O", "MEASUREMENT TARGET": "HCT-116 colon", "CLASS ASSIGNMENT": "N"}
{"COMPOUND": "N=C1C(c2nc(-c3ccc(Br)cc3)cs2)=C(O)CN1CC1CCCO1 (centres undefined)", "MEASUREMENT TARGET": "HCT-116 colon", "CLASS ASSIGNMENT": "N"}
{"COMPOUND": "COc1ccc(N=Nc2ccc(O)c(=O)cc2)cc1", "MEASUREMENT TARGET": "HCT-116 colon", "CLASS ASSIGNMENT": "N"}
{"COMPOUND": "COc1cccc(-c2nn(-c3ccccc3)cc2-c2ccnc(NCCNC(=O)Nc3ccccc3)c2)c1", "MEASUREMENT TARGET": "HCT-116 colon", "CLASS ASSIGNMENT": "N"}
{"COMPOUND": "CCC1(C2CCCC2)NC(=O)NC1=O (centres undefined)", "MEASUREMENT TARGET": "HCT-116 colon", "CLASS ASSIGNMENT": "N"}
{"COMPOUND": "COc1ccc2oc3c(C)c4c(c(C)c3c2c1)C(=O)N(Cc1ccccc1)C4=O", "MEASUREMENT TARGET": "HCT-116 colon", "CLASS ASSIGNMENT": "N"}
{"COMPOUND": "Cc1ccc(C2SCC(=O)N2Cc2ccccc2)cc1 (centres undefined)", "MEASUREMENT TARGET": "HCT-116 colon", "CLASS ASSIGNMENT": "N"}
{"COMPOUND": "COc1cccc(/C=C/C(=O)c2c(C)nc3ccccc3c2/C=C/c2ccc(C)cc2)c1OC", "MEASUREMENT TARGET": "HCT-116 colon", "CLASS ASSIGNMENT": "Y"}
